The measured values listed here are drawn from ChEMBL document CHEMBL5257097.

Experiment: Cytotoxicity against African green monkey Vero cells infected with DENV-2 assessed as reduction in cell viability by visual assay
Assay type: toxicity, cell-based
Details: chlorocebus sabaeus
Measurement label: CC50

Nc1ncnc2c([C@@H]3N[C@H](CO)[C@@H](O)[C@H]3O)c[nH]c12 : > 100 µM

# CC50 of Nc1ncnc2c([C@@H]3N[C@H](CO)[C@@H](O)[C@H]3O)n[nH]c12 = > 100 µM

====

Experiment: Selectivity index, ratio of CC50 for cytotoxicity against dog MDCK cells infected with Influenza A virus H1N1 assessed as reduction in cell viability by neutral red dye based analysis to EC50 for antiviral activity against Influenza A virus H1N1 infected in dog MDCK cells assessed as inhibition of viral replication by neutral red dye based analysis
Format: toxicity
Conditions: read-out: Ratio CC50/EC50
Measurement label: selectivity ratio

# selectivity ratio of Nc1ncnn2c([C@@H]3N[C@H](CO)[C@@H](O)[C@H]3O)ccc12 = 44
